Ref: patent US11286268B1

Task for the reader: assign each of the following compounds its reported IC50.
Molecular target: recombinant eIF4E (Homo sapiens (Human))
Sequence (P06730 whole entry): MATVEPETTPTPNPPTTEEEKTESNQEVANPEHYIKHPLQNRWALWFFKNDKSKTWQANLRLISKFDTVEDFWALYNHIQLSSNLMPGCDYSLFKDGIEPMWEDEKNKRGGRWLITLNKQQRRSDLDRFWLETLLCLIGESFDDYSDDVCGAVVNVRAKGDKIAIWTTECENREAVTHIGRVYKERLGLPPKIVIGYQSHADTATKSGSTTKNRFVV
Test: Fluorescence polarization competition assay for eIF4E binding potency
Settings: inhibition of eIF4E/EDA-m7GDP-ATTO-550 binding; calculated IC50 values, Table 4B; read-out: IC50
One number for each entry, in nM.

Compound	System Tested	IC50 [nM]
Cc1nc2cnc(N(C)C3CCN(C4(C(F)(F)F)CC4)CC3)c(C#N)c2c(=O)n1CC#Cc1ccc(Cl)cc1-c1ccnc2c(C(=O)O)csc12	recombinant eIF4E (Homo sapiens (Human))	33.5
Cc1nc2cc(F)c(F)c(C#N)c2c(=O)n1CCOc1ccc(Cl)cc1-c1ccnc2c(C(=O)O)csc12	recombinant eIF4E (Homo sapiens (Human))	29.7
N#Cc1ccc(C#N)c2c(=O)n(CCOc3ccc(Cl)cc3-c3cccc(C(=O)O)c3)cnc12	recombinant eIF4E (Homo sapiens (Human))	58.1

For each entry beneath this line, provide reported IC50.
1. Cc1nc2cnc(C3=CCN(CC(F)F)CC3)c(C#N)c2c(=O)n1CC#Cc1ccc(Cl)cc1-c1ccnc2c(C(=O)O)csc12
2. Cc1nc2cnc(N3CCN(C4(CC(F)F)CC4)CC3)c(C#N)c2c(=O)n1CCOc1ccc(Cl)cc1-c1ccnc2c(C(=O)O)csc12

Response given:
[22.9, 18.8]

Hey, can you go through the list below and give me IC50 for every item?
1. Cc1nc2cnc(C3CCC(F)(F)C3)c(C#N)c2c(=O)n1CCOc1ccc(Cl)cc1-c1ccnc2c(C(=O)O)csc12 (stereo not drawn)
2. Cc1nc2cnc(N(C)C3CCN(CC(F)(F)F)CC3)c(C#N)c2c(=O)n1CC#Cc1ccc(Cl)cc1-c1ccnc2c(C(=O)NS(=O)(=O)CF)csc12
3. Cc1nc2cnc(OC3CCN(C4CC(F)(F)C4)CC3)c(C#N)c2c(=O)n1CCOc1ccc(Cl)cc1-c1ccnc2c(C(=O)O)csc12
4. COC(=O)c1csc2c(-c3cc(Cl)ccc3C#CCn3c(C)nc4cnc(N(C)C5CCN(CC(F)(F)F)CC5)c(C#N)c4c3=O)ccnc12
5. Cc1cc(-c2cc(Cl)ccc2OCCn2c(C)nc3c(-c4ccccc4)nc(N4CCN(C)CC4)c(C#N)c3c2=O)c2scc(C(=O)O)c2n1

Response given:
[8.91, 9.17, 20.5, 13.1, 24.2]

# batch: return IC50 for each of the 2 compounds below
1. Cc1nc2cnc(N3CCN(C)C(CC#N)C3)c(C#N)c2c(=O)n1CCOc1ccc(Cl)cc1-c1ccnc2c(C(=O)O)csc12 (stereo not drawn)
2. Cc1nc2cnc(N(C)C3CCN(C4CC(F)(F)C4)CC3)c(C#N)c2c(=O)n1CC#Cc1ccc(Cl)cc1-c1ccnc2c(C(=O)NS(=O)(=O)C3CC(F)(F)C3)csc12

Response given:
1. 30.4
2. 14.8
